assay: molar heat capacity at constant pressure; conditions: 339.15 K; 101.33 kPa; Liquid

>  <smiles.record>
CCCCBr

>  <result.units>
J/K/mol

>  <molar heat capacity at constant pressure>
171.94

$$$$
>  <smiles.record>
CCCCCBr

>  <result.units>
J/K/mol

>  <molar heat capacity at constant pressure>
202.76

$$$$
>  <smiles.record>
CCCCCCCCCCCl

>  <result.units>
J/K/mol

>  <molar heat capacity at constant pressure>
355.52

$$$$
>  <smiles.record>
CCCCCCCBr

>  <result.units>
J/K/mol

>  <molar heat capacity at constant pressure>
264.64

$$$$
>  <smiles.record>
CCCCCCCl

>  <result.units>
J/K/mol

>  <molar heat capacity at constant pressure>
230.06

$$$$
>  <smiles.record>
CCCCCl

>  <result.units>
J/K/mol

>  <molar heat capacity at constant pressure>
169.12

$$$$
>  <smiles.record>
CCCCCCCCl

>  <result.units>
J/K/mol

>  <molar heat capacity at constant pressure>
261.01

$$$$

---

Each entry below lists one item and its recorded molar heat capacity at constant pressure value.
assay: molar heat capacity at constant pressure; details: 289.15 K; 101.33 kPa; Liquid
measurement.name: molar heat capacity at constant pressure (J/K/mol)

>  <smiles.record>
CCCCBr

>  <assay.result>
160.53

$$$$
>  <smiles.record>
CCCCCBr

>  <assay.result>
189.17

$$$$
>  <smiles.record>
CCCCCCCl

>  <assay.result>
213.91

$$$$
>  <smiles.record>
CCCCCCCCl

>  <assay.result>
242.67

$$$$
>  <smiles.record>
CCCBr

>  <assay.result>
132.01

$$$$
>  <smiles.record>
CCBr

>  <assay.result>
106.14

$$$$
>  <smiles.record>
CCCCCl

>  <assay.result>
157.28

$$$$
>  <smiles.record>
CCCCCCBr

>  <assay.result>
217.08

$$$$
>  <smiles.record>
CCCCCCCCCCCl

>  <assay.result>
331

$$$$
>  <smiles.record>
CCCCCCCBr

>  <assay.result>
246.44

$$$$
>  <smiles.record>
CCCCCCl

>  <assay.result>
185.95

$$$$
>  <smiles.record>
CCCCCCCCCl

>  <assay.result>
271.83

$$$$
>  <smiles.record>
CCCCCCCCCBr

>  <assay.result>
304.62

$$$$
>  <smiles.record>
CCCCl

>  <assay.result>
129.53

$$$$
>  <smiles.record>
CCCCCCCCCCBr

>  <assay.result>
335

$$$$

---

assay: molar heat capacity at constant pressure; settings: 336.65 K; 101.33 kPa; Liquid
Each entry below lists one item and its recorded molar heat capacity at constant pressure value.

>  <smiles.record>
CCCCCCCl

>  <result.units>
J/K/mol

>  <molar heat capacity at constant pressure>
229.44

$$$$
>  <smiles.record>
CCCCCCBr

>  <result.units>
J/K/mol

>  <molar heat capacity at constant pressure>
231.59

$$$$
>  <smiles.record>
CCCCCCCCCl

>  <result.units>
J/K/mol

>  <molar heat capacity at constant pressure>
291.34

$$$$
>  <smiles.record>
CCCCCl

>  <result.units>
J/K/mol

>  <molar heat capacity at constant pressure>
168.53

$$$$
>  <smiles.record>
CCCCBr

>  <result.units>
J/K/mol

>  <molar heat capacity at constant pressure>
171

$$$$
>  <smiles.record>
CCCCCCl

>  <result.units>
J/K/mol

>  <molar heat capacity at constant pressure>
199.23

$$$$
>  <smiles.record>
CCCCCCCCCCBr

>  <result.units>
J/K/mol

>  <molar heat capacity at constant pressure>
357.34

$$$$
>  <smiles.record>
CCCCCCCCl

>  <result.units>
J/K/mol

>  <molar heat capacity at constant pressure>
259.88

$$$$
>  <smiles.record>
CCCCCCCCCCCl

>  <result.units>
J/K/mol

>  <molar heat capacity at constant pressure>
353.39

$$$$
>  <smiles.record>
CCCCCBr

>  <result.units>
J/K/mol

>  <molar heat capacity at constant pressure>
201.57

$$$$
>  <smiles.record>
CCCCCCCBr

>  <result.units>
J/K/mol

>  <molar heat capacity at constant pressure>
262.97

$$$$
>  <smiles.record>
CCCCCCCCCBr

>  <result.units>
J/K/mol

>  <molar heat capacity at constant pressure>
325

$$$$

---

Each entry below lists one item and its recorded molar heat capacity at constant pressure value.
test: molar heat capacity at constant pressure; details: 284.15 K; 101.33 kPa; Liquid

>  <compound>
CCCCCCCl [1-chlorohexane]

>  <molar heat capacity at constant pressure, J/K/mol>
212.36

$$$$
>  <compound>
CCCCCCCCl [1-chloroheptane]

>  <molar heat capacity at constant pressure, J/K/mol>
240.95

$$$$
>  <compound>
CCCCCBr [1-bromopentane]

>  <molar heat capacity at constant pressure, J/K/mol>
187.88

$$$$
>  <compound>
CCBr [bromoethane]

>  <molar heat capacity at constant pressure, J/K/mol>
105.63

$$$$
>  <compound>
CCCCCCBr [1-bromohexane]

>  <molar heat capacity at constant pressure, J/K/mol>
215.54

$$$$
>  <compound>
CCCCCCCBr [1-bromoheptane]

>  <molar heat capacity at constant pressure, J/K/mol>
244.73

$$$$
>  <compound>
CCCCCCCCCCBr [1-bromodecane]

>  <molar heat capacity at constant pressure, J/K/mol>
332.6

$$$$
>  <compound>
CCCCl [1-chloropropane]

>  <molar heat capacity at constant pressure, J/K/mol>
128.63

$$$$
>  <compound>
CCCCCCl [1-chloropentane]

>  <molar heat capacity at constant pressure, J/K/mol>
184.57

$$$$
>  <compound>
CCCCCl [1-chlorobutane]

>  <molar heat capacity at constant pressure, J/K/mol>
156.22

$$$$
>  <compound>
CCCCCCCCCl [1-chlorooctane]

>  <molar heat capacity at constant pressure, J/K/mol>
269.76

$$$$
>  <compound>
CCCCCCCCCCCl [1-chlorodecane]

>  <molar heat capacity at constant pressure, J/K/mol>
328.57

$$$$
>  <compound>
CCCCCCCCCBr [1-bromononane]

>  <molar heat capacity at constant pressure, J/K/mol>
302.55

$$$$
>  <compound>
CCCBr [1-bromopropane]

>  <molar heat capacity at constant pressure, J/K/mol>
131.2

$$$$
>  <compound>
CCCCBr [1-bromobutane]

>  <molar heat capacity at constant pressure, J/K/mol>
159.45

$$$$

---

Each entry below lists one item and its recorded molar heat capacity at constant pressure value.
assay: molar heat capacity at constant pressure; settings: 304.15 K; 101.33 kPa; Liquid
measurement.name: molar heat capacity at constant pressure (J/K/mol)

>  <smiles.record>
CCCCCBr

>  <assay.result>
193.01

$$$$
>  <smiles.record>
CCCCCCCCCBr

>  <assay.result>
310.95

$$$$
>  <smiles.record>
CCCBr

>  <assay.result>
134.55

$$$$
>  <smiles.record>
CCCCCCCCCCCl

>  <assay.result>
337.47

$$$$
>  <smiles.record>
CCCCCCBr

>  <assay.result>
221.38

$$$$
>  <smiles.record>
CCCCBr

>  <assay.result>
163.72

$$$$
>  <smiles.record>
CCCCCl

>  <assay.result>
160.5

$$$$
>  <smiles.record>
CCCCCCCCCCBr

>  <assay.result>
341.48

$$$$
>  <smiles.record>
CCCCCCCCl

>  <assay.result>
247.61

$$$$
>  <smiles.record>
CCCCCCl

>  <assay.result>
189.81

$$$$
>  <smiles.record>
CCCCCCCCCl

>  <assay.result>
277.29

$$$$
>  <smiles.record>
CCCCl

>  <assay.result>
132.37

$$$$
>  <smiles.record>
CCCCCCCBr

>  <assay.result>
251.56

$$$$
>  <smiles.record>
CCCCCCCl

>  <assay.result>
218.44

$$$$

---

Each entry below lists one item and its recorded molar heat capacity at constant pressure value.
assay: molar heat capacity at constant pressure; conditions: 299.15 K; 101.33 kPa; Liquid

>  <smiles.record>
CCCCCCCCCBr

>  <molar heat capacity at constant pressure (J/K/mol)>
308.8

$$$$
>  <smiles.record>
CCCCCBr

>  <molar heat capacity at constant pressure (J/K/mol)>
191.57

$$$$
>  <smiles.record>
CCCCCCCCCCBr

>  <molar heat capacity at constant pressure (J/K/mol)>
339.29

$$$$
>  <smiles.record>
CCCBr

>  <molar heat capacity at constant pressure (J/K/mol)>
133.64

$$$$
>  <smiles.record>
CCCCCCCl

>  <molar heat capacity at constant pressure (J/K/mol)>
216.95

$$$$
>  <smiles.record>
CCBr

>  <molar heat capacity at constant pressure (J/K/mol)>
107.42

$$$$
>  <smiles.record>
CCCCCCCCCCCl

>  <molar heat capacity at constant pressure (J/K/mol)>
335.39

$$$$
>  <smiles.record>
CCCCCCBr

>  <molar heat capacity at constant pressure (J/K/mol)>
219.99

$$$$
>  <smiles.record>
CCCCCCCCCl

>  <molar heat capacity at constant pressure (J/K/mol)>
275.61

$$$$
>  <smiles.record>
CCCCCCCCl

>  <molar heat capacity at constant pressure (J/K/mol)>
246.05

$$$$
>  <smiles.record>
CCCCCCl

>  <molar heat capacity at constant pressure (J/K/mol)>
188.46

$$$$
>  <smiles.record>
CCCCCCCBr

>  <molar heat capacity at constant pressure (J/K/mol)>
249.7

$$$$
>  <smiles.record>
CCCCCl

>  <molar heat capacity at constant pressure (J/K/mol)>
159.48

$$$$
>  <smiles.record>
CCCCl

>  <molar heat capacity at constant pressure (J/K/mol)>
131.33

$$$$
>  <smiles.record>
CCCCBr

>  <molar heat capacity at constant pressure (J/K/mol)>
162.6

$$$$
